Origin of the recorded values: ChEMBL document CHEMBL1153244

Assay: Clearance in rat at 2.4 mg, iv
Assay type: ADME, organism-based
Conditions: in vivo
quantityKind: clearance
Answer as a quantity: numeral, then unit.

Task item: Form field: reported clearance of Cc1occc1-c1nc(N)c(OC[C@@H](N)Cc2c[nH]c3ccccc23)cc1-c1cnc2[nH]nc(C)c2n1
Reply: 46 mL/min/kg

---

Experiment: Clearance in dog at 2.4 mg, iv
Assay type: ADME, organism-based, Canis lupus familiaris
Conditions: in vivo
quantityKind: clearance
Answer as a quantity: numeral, then unit.

Task item: Form field: reported clearance of Cc1n[nH]c2ncc(-c3cc(OC[C@@H](N)Cc4c[nH]c5ccccc45)cnc3-c3ccoc3)nc12
Reply: 34.4 mL/min/kg
